The following are reported pIC50 results, target or system RON (human) (Homo sapiens, UniProt Q04912).
pIC50: −log10 of the molar value. Where a name gives a salt, the structure may show the parent alone.

>  <molecule>
CCN1CCN(C(=O)NCC#Cc2cnc(N)c(-c3nc4ccccc4s3)c2)CC1

>  <pIC50>
4.70 to 6.00

$$$$

Give measured pIC50 for every item shown.
1. Nc1ncc(-c2cnn(C3CCNCC3)c2)cc1-c1cc2c(-c3nccs3)ccc(F)c2cn1 [Example 55, trihydrochloride]
2. Nc1ncc(-c2cnn(C3CCNCC3)c2)cc1-c1cc2ccccc2cn1 [Example 13, trihydrochloride]
3. CN(C)C(=O)N1CCC(n2cc(-c3cnc(N)c(-c4cc5c(Cl)ccc(F)c5cn4)c3)cn2)CC1 [Example 67, bis-hydrochloride]

RESULT:
4.70 to 6.00
4.70 to 6.00
6.00 to 7.00

Give measured pIC50 for every item shown.
1. CC(C)n1cc(-c2cnc(N)c(-c3nc4ccccc4s3)c2)cn1 [Example 118, bis-hydrochloride]
2. N#Cc1ccc2nc(-c3cc(-c4cnn(C5CCNCC5)c4)cnc3N)sc2c1
3. N#Cc1ccc(F)c2cnc(-c3cc(-c4cnn(C5CCNCC5)c4)cnc3N)cc12 [Example 37, trihydrochloride]

RESULT:
["6.00 to 7.00", "6.00 to 7.00", "6.00 to 7.00"]

Give measured pIC50 for every item shown.
1. Nc1ncc(-c2cnn([C@@H]3CCNC3)c2)cc1-c1cc2ccccc2o1 [Example 99, dihydrochloride]
2. Nc1ncc(-c2cnn(C3CCNCC3)c2)cc1-c1cc2ccccc2s1 [Example 104, bishydrochloride]
3. N#Cc1ccc2cc(-c3cc(-c4cnn(C5CCNCC5)c4)cnc3N)ncc2c1 [Example 32, trihydrochloride salt]

RESULT:
1. 6.00 to 7.00
2. 6.00 to 7.00
3. 6.00 to 7.00

###

The following are reported IC50 results, target or system MET (human) (Homo sapiens, UniProt P08581).
Counter-ions that a name gives are not always drawn.

Here's what some known entries look like.
>  <molecule>
CN(C)C(=O)c1cccc(-c2cnc(N)c(-c3nc4ccccc4s3)c2)c1

>  <testSystem>
MET (human) (Homo sapiens, UniProt P08581)
Sequence (P08581 25-1390): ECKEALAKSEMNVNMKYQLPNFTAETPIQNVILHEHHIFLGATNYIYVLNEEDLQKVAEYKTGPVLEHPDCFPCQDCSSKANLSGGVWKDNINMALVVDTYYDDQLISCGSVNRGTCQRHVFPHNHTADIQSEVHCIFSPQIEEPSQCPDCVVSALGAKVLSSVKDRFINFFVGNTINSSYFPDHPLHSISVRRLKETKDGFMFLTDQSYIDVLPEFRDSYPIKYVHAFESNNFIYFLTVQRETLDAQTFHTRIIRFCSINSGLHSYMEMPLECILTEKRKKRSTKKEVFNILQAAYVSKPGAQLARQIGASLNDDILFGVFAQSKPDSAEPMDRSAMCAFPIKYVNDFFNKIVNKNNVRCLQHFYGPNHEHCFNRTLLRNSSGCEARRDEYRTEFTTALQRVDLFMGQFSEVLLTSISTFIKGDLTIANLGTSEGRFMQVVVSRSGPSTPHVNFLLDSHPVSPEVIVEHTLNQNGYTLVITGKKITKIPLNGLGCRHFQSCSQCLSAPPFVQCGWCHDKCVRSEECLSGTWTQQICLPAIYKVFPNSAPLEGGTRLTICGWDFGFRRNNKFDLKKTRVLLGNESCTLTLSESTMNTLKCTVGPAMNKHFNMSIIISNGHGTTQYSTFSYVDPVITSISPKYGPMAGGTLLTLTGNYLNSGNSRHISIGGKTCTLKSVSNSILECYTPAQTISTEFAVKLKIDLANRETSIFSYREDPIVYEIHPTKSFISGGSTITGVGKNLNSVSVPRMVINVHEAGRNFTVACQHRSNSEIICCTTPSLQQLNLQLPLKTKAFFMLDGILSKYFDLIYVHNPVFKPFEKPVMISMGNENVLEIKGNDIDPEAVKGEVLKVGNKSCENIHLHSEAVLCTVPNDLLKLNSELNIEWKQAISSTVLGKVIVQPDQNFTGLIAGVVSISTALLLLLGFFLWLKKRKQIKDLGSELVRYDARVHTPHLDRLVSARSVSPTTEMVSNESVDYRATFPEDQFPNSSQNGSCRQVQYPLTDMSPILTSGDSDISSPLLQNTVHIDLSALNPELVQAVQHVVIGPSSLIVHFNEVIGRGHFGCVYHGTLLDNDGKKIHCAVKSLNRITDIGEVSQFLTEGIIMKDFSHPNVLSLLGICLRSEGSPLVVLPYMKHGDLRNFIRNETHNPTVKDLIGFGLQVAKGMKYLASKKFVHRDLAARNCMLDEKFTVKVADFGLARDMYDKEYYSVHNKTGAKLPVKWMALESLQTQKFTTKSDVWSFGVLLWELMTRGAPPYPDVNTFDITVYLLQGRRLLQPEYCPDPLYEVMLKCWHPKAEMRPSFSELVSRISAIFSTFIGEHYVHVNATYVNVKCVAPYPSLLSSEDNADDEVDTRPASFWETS

>  <IC50>
1 to 20 µM

$$$$
>  <molecule>
Cn1cc(-c2cnc(N)c(-c3nc4ccccc4s3)c2)cn1 [Example 119, bis-hydrochloride]

>  <testSystem>
MET (human) (Homo sapiens, UniProt P08581)

>  <IC50>
1 to 20 µM

$$$$
>  <molecule>
Cn1cc(-c2cccc3nc(-c4cc(-c5cnn(C6CCNCC6)c5)cnc4N)sc23)cn1 [Example 248, dihydrochloride]

>  <testSystem>
MET (human) (Homo sapiens, UniProt P08581)

>  <IC50>
0.1 to 1 µM

$$$$
>  <molecule>
Cn1cc(-c2cnc(N)c(-c3cc4ccccc4o3)c2)cn1 [Example 101, bis-hydrochloride]

>  <testSystem>
MET (human) (Homo sapiens, UniProt P08581)

>  <IC50>
1 to 20 µM

$$$$

Give measured IC50 for every item shown.
1. N#Cc1ccc2sc(-c3cc(-c4cnn(C5CCNCC5)c4)cnc3N)nc2c1
2. CC(C)n1cc(-c2cnc(N)c(-c3nc4ccccc4s3)c2)cn1 [Example 118, bis-hydrochloride]

RESULT:
1. ≤ 0.1 µM
2. 0.1 to 1 µM

Give measured IC50 for every item shown.
1. Nc1ncc(-c2cnn(C3CCN(CC(=O)NCCO)CC3)c2)cc1-c1nc2ccccc2s1
2. Nc1ncc(-c2cnn(C3CCNCC3)c2)cc1-c1nc2c(Br)cccc2s1
3. Nc1ncc(-c2cnn(CC(=O)N3CCC(O)C3)c2)cc1-c1nc2ccccc2s1 (stereo not shown)
4. Nc1ncc(-c2cnn([C@@H]3CN[C@H](C(=O)N4CCC(O)C4)C3)c2)cc1-c1nc2ccccc2s1 (stereo partly shown)
5. Nc1ncc(-c2cnn([C@@H]3CN[C@@H](C(=O)N4CCC(O)C4)C3)c2)cc1-c1nc2ccccc2s1 (stereo partly shown)
6. CN(C)C(=O)[C@H]1C[C@H](n2cc(-c3cnc(N)c(-c4nc5ccccc5s4)c3)cn2)CN1
7. Nc1ncc(-c2cnn(CC(=O)N3CCCC3)c2)cc1-c1nc2ccccc2s1

RESULT:
["≤ 0.1 µM", "≤ 0.1 µM", "1 to 20 µM", "≤ 0.1 µM", "≤ 0.1 µM", "0.1 to 1 µM", "1 to 20 µM"]

Give measured IC50 for every item shown.
1. Nc1ncc(-c2cnn(C3CCNCC3)c2)cc1-c1cc2c(F)ccc(F)c2cn1 [Example 10, trihydrochloride]
2. Nc1ncc(-c2cnn(C3CCNCC3)c2)cc1-c1cc2cccc(Cl)c2cn1 [Example 3, trihydrochloride]
3. CN(C)CCNC(=O)c1cccc(-c2cnc(N)c(-c3nc4ccccc4s3)c2)c1
4. CN1CCC(NC(=O)c2cccc(-c3cnc(N)c(-c4nc5ccccc5s4)c3)c2)CC1
5. Nc1ncc(-c2cccc(C(=O)N[C@H]3CCCC[C@@H]3O)c2)cc1-c1nc2ccccc2s1
6. Nc1ncc(-c2cnn(C3CCNCC3)c2)cc1-c1nc2c(s1)CCCCC2
7. CN(C)C(=O)NCC#Cc1cnc(N)c(-c2nc3ccccc3s2)c1
8. Nc1ncc(-c2cnn(C3CCNCC3)c2)cc1-c1nc2cccc(C(F)(F)F)c2s1

RESULT:
0.1 to 1 µM
≤ 0.1 µM
1 to 20 µM
0.1 to 1 µM
1 to 20 µM
0.1 to 1 µM
1 to 20 µM
0.1 to 1 µM

Give measured IC50 for every item shown.
1. Nc1ncc(-c2cnc(N3CCOCC3)s2)cc1-c1cc2c(Cl)ccc(F)c2cn1
2. Nc1ncc(-c2cnn(C3CCN(CC(=O)N4CCCC4)CC3)c2)cc1-c1nc2ccccc2s1
3. Nc1ncc(-c2cnn(C3CCNCC3)c2)cc1-c1cc2ccccc2cn1 [Example 13, trihydrochloride]
4. CN1C2CCC1CC(n1cc(-c3cnc(N)c(-c4nc5ccccc5s4)c3)cn1)C2 (stereo not shown) [Example 108, trihydrochloride]

RESULT:
> 20 µM
≤ 0.1 µM
0.1 to 1 µM
≤ 0.1 µM

Give measured IC50 for every item shown.
1. Nc1ncc(-c2cnn(C3CCNCC3)c2)cc1-c1cc2c(-c3cccnc3)ccc(F)c2cn1 [Example 54, trihydrochloride]
2. Nc1ncc(-c2cnn(C3CCNCC3)c2)cc1-c1ncc2ccccc2c1F [Example 8, trihydrochloride]

RESULT:
0.1 to 1 µM
1 to 20 µM

Give measured IC50 for every item shown.
1. Nc1ncc(-c2cnn(C3CCNCC3)c2)cc1-c1nc2ccccc2o1 [Example 106, dihydrochloride]
2. COCCN(CCOC)C(=O)CCn1cc(-c2cnc(N)c(-c3nc4ccccc4s3)c2)cn1
3. COCCNC(=O)C(C)n1cc(-c2cnc(N)c(-c3nc4ccccc4s3)c2)cn1 (stereo not shown)
4. Nc1ncc(-c2cnn(C3CCNCC3)c2)cc1-c1cc2c(-c3nccs3)ccc(F)c2cn1 [Example 55, trihydrochloride]

RESULT:
["≤ 0.1 µM", "1 to 20 µM", "1 to 20 µM", "0.1 to 1 µM"]

###

# testSystem: MET (human) (Homo sapiens, UniProt P08581)
# procedureDetails: MET kinase AlphaScreen assay (Km of ATP)
# Type: biochemical
# conditionSummary: ATP at Km; at least duplicate experiments
# Source text: Person skilled in the art will appreciate that a variety of assay formats may be used to determine the activity of the compounds of this invention. For example, AlphaScreen (Amplified Luminescent Proximity Homogeneous Assay) technology was used with the kinases described below. Assay ATP concentrations for individual kinases are included in the text. […]
Counter-ions that a name gives are not always drawn.
readoutLabel: IC50

Here's what some known entries look like.
>  <molecule>
CN(C)C(=O)N1CCC(n2cc(-c3cnc(N)c(-c4nc5ccccc5s4)c3)cn2)CC1 [Example 117, bis-hydrochloride]

>  <testSystem>
MET (human) (Homo sapiens, UniProt P08581)

>  <IC50>
100 to 1000 nM

$$$$
>  <molecule>
NC(=O)CN1CCC(n2cc(-c3cnc(N)c(-c4nc5ccccc5s4)c3)cn2)CC1 [Example 162]

>  <testSystem>
MET (human) (Homo sapiens, UniProt P08581)

>  <IC50>
≤ 100 nM

$$$$
>  <molecule>
COCCN(CCOC)C(=O)Cn1cc(-c2cnc(N)c(-c3nc4ccccc4s3)c2)cn1 [Example 138]

>  <testSystem>
MET (human) (Homo sapiens, UniProt P08581)

>  <IC50>
1000 to 20000 nM

$$$$
>  <molecule>
Cc1cccc2cc(-c3cc(-c4cnn(C5CCNCC5)c4)cnc3N)ncc12 [Example 5, trihydrochloride]

>  <testSystem>
MET (human) (Homo sapiens, UniProt P08581)

>  <IC50>
100 to 1000 nM

$$$$

Give measured IC50 for every item shown.
1. Nc1ncc(-c2cc3ccccc3[nH]2)cc1-c1cc2c(Cl)ccc(F)c2cn1 [Example 89]
2. Nc1ncc(-c2ccc(O)nc2)cc1-c1cc2c(Cl)ccc(F)c2cn1 [Example 84]
3. Cc1nc(-c2cc(-c3cnn(C4CCNCC4)c3)cnc2N)cc2ccccc12 [Example 1, trihydrochloride]
4. CCN1CCN(C(=O)NCC#Cc2cnc(N)c(-c3nc4ccccc4s3)c2)CC1 [Example 128]
5. Nc1ncc(-c2cnn(C3CCNCC3)c2)cc1-c1cc2cccc(F)c2cn1 [Example 39]
6. Nc1ncc(-c2cnn(C3CCNCC3)c2)cc1-c1cc2c(Br)ccc(F)c2cn1 [Example 7, trihydrochloride]
7. Nc1ncc(-c2cnn(C3CCNCC3)c2)cc1-c1cc2c(O)cccc2cn1 [Example 27, tri-hydrochloride salt]
8. Nc1ncc(-c2ccsc2)cc1-c1cc2c(Cl)ccc(F)c2cn1 [Example 76]

RESULT:
["1000 to 20000 nM", "1000 to 20000 nM", "1000 to 20000 nM", "1000 to 20000 nM", "≤ 100 nM", "≤ 100 nM", "100 to 1000 nM", "> 20000 nM"]

Give measured IC50 for every item shown.
1. COc1cccc2nc(-c3cc(-c4cnn(C5CCNCC5)c4)cnc3N)sc12 [Example 264]
2. CC(C)(C)OC(=O)N1CC=C(c2cnc(N)c(-c3cc4c(Cl)ccc(F)c4cn3)c2)CC1 [Example 80]

RESULT:
1. ≤ 100 nM
2. 1000 to 20000 nM

Give measured IC50 for every item shown.
1. Nc1ncc(-c2cnn(C3CCNCC3)c2)cc1-c1cc2cc(Cl)cc(Cl)c2cn1 [Example 43, trihydrochloride]
2. Nc1ncc(-c2cnn(C3CCNCC3)c2)cc1-c1nc2c(C(F)(F)F)cccc2s1 [Example 262]

RESULT:
1: 100 to 1000 nM; 2: 100 to 1000 nM

Give measured IC50 for every item shown.
1. Nc1ncc(-c2cnn(CCC(=O)N3CCC(O)CC3)c2)cc1-c1nc2ccccc2s1 [Example 290]
2. Nc1ncc(-c2cnn(C3CCNCC3)c2)cc1-c1cc2c(Cl)ccc(Cl)c2cn1 [Example 9, trihydrochloride]
3. CN(C)CCNC(=O)c1ccc(-c2cnc(N)c(-c3nc4ccccc4s3)c2)cc1 [Example 185]
4. COCCN(CCOC)C(=O)C(C)n1cc(-c2cnc(N)c(-c3nc4ccccc4s3)c2)cn1 (centres unmarked) [Example 143]

RESULT:
100 to 1000 nM
≤ 100 nM
100 to 1000 nM
1000 to 20000 nM

Give measured IC50 for every item shown.
1. Nc1ncc(-c2cnn([C@@H]3CCNC3)c2)cc1-c1cc2c(Cl)ccc(F)c2cn1 [Example 62, trihydrochloride]
2. Nc1ncc(-c2cnn(C3CCNCC3)c2)cc1-c1cc2c(-c3cncs3)ccc(F)c2cn1 [Example 56, trihydrochloride]

RESULT:
1: 100 to 1000 nM; 2: 100 to 1000 nM

Give measured IC50 for every item shown.
1. CC(C(=O)N1CCCC1)n1cc(-c2cnc(N)c(-c3nc4ccccc4s3)c2)cn1 (centres unmarked) [Example 151]
2. CN(C)C(=O)CN1CCN(C(=O)c2cccc(-c3cnc(N)c(-c4nc5ccccc5s4)c3)c2)CC1 [Example 215]
3. Nc1ncc(-c2ccc(C(=O)O)cc2)cc1-c1nc2ccccc2s1 [Example 201]

RESULT:
100 to 1000 nM
1000 to 20000 nM
1000 to 20000 nM

Give measured IC50 for every item shown.
1. Nc1ncc(-c2cnn(C3CCNCC3)c2)cc1N1CCc2c(F)cccc2C1 [Example 301]
2. Nc1ncc(-c2cnn(C3CCNCC3)c2)cc1-c1nc2cccc(-c3cn[nH]c3)c2s1 [Example 247, dihydrochloride]
3. Nc1ncc(-c2ccc(C(=O)O)nc2)cc1-c1nc2ccccc2s1 [Example 202]
4. Nc1ncc(-c2cnn(CCN3CCOCC3)c2)cc1-c1nc2ccccc2s1 [Example 197]
5. N#Cc1ccc(F)c2cnc(-c3cc(-c4cnn(C5CCNCC5)c4)cnc3N)cc12 [Example 37, trihydrochloride]
6. Nc1ncc(-c2cnn(CCC(=O)N3CCOCC3)c2)cc1-c1nc2ccccc2s1 [Example 291]
7. Nc1ncc(-c2ccoc2)cc1-c1cc2c(Cl)ccc(F)c2cn1 [Example 85]

RESULT:
1. 1000 to 20000 nM
2. ≤ 100 nM
3. 100 to 1000 nM
4. 1000 to 20000 nM
5. 100 to 1000 nM
6. 1000 to 20000 nM
7. 1000 to 20000 nM

meta.source: patent US8178668B2
